Consider the following compounds; for each one, report its Hepatotoxicity (severe hepatitis).
Conditions: human, Liver;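 note: human clinical data: severe hepatitis, meaning potentially life-threatening liver failure or clinically observed cases, the value counts how many indexed literature references report it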

Examples with answers:
For the compound CNCCCN1c2ccccc2CCc2ccccc21 , report Hepatotoxicity (severe hepatitis).
1

Identify measured Hepatotoxicity (severe hepatitis) associated with CC(C)(C)c1ccc(C(O)CCCN2CCC(C(O)(c3ccccc3)c3ccccc3)CC2)cc1 (centres undefined)
0

Report Hepatotoxicity (severe hepatitis) for Clc1cccc(Cl)c1N=C1NCCN1
0

State, in one line, measured Hepatotoxicity (severe hepatitis) of Nc1ccn([C@H]2CC[C@@H](CO)O2)c(=O)n1
0

Quote Hepatotoxicity (severe hepatitis) reported for CCCCNC(=N)NC(=N)N please.
0

Provide Hepatotoxicity (severe hepatitis) for all items below, preserving their order.
1. Cc1ncc(C[n+]2csc(CCO)c2C)c(N)n1
2. O=C1CN(/N=C/c2ccc([N+](=O)[O-])o2)C(=O)N1
3. CCOC(=O)C1=C(C)NC(C)=C(C(=O)OC)C1c1cccc(Cl)c1Cl (centres undefined)
4. CCOc1ccccc1OCC1CNCCO1 (centres undefined)
5. Cn1cnc([N+](=O)[O-])c1Sc1ncnc2nc[nH]c12

[0, 8, 0, 0, 5]

# batch: return Hepatotoxicity (severe hepatitis) for each of the 4 compounds below
1. Cc1ccc(-c2cc(C(F)(F)F)nn2-c2ccc(S(N)(=O)=O)cc2)cc1
2. COc1ccc2cc([C@H](C)C(=O)O)ccc2c1
3. CN(C)CCOC(c1ccccc1)c1ccccc1 [DIPHENHYDRAMINE]
4. CO/N=C(\C(=O)N[C@@H]1C(=O)N2C(C(=O)[O-])=C(C[N+]3(C)CCCC3)CS[C@H]12)c1csc(N)n1

0
4
0
0

Hi! Can you tell me Hepatotoxicity (severe hepatitis) for each of these compounds?
1. [AsH3]
2. CC1CS(=O)(=O)CCN1/N=C/c1ccc([N+](=O)[O-])o1 (centres undefined)
3. CN(C)CCCN1c2ccccc2Sc2ccc(Cl)cc21
4. O=C(O)c1cc(-c2ccc(F)cc2F)ccc1O
5. Cc1c(C)c2c(c(C)c1O)CC[C@@](C)(CCC[C@H](C)CCC[C@H](C)CCCC(C)C)O2
6. c1ccc([C@H]2CN3CCSC3=N2)cc1

0
0
4
0
4
0

Required: Hepatotoxicity (severe hepatitis), one value per compound below.
1. CSc1ccc2c(c1)N(CCC1CCCCN1C)c1ccccc1S2 (centres undefined)
2. CC(C)(C)NC(=O)[C@@H]1CN(Cc2cccnc2)CCN1C[C@@H](O)C[C@@H](Cc1ccccc1)C(=O)N[C@H]1c2ccccc2C[C@H]1O.O
3. O=C1NC(=O)C(c2ccccc2)(c2ccccc2)N1
4. C[C@H](CS)C(=O)N1CCC[C@H]1C(=O)O

1. 1
2. 4
3. 14
4. 1
